biological target: SAE (Homo sapiens); construct: endogenous in cells; host or cells: HCT116; test: SUMO IF: in vitro inhibitory activity assay against SAE in HCT116 cells (SUMO-2/3 immunofluorescence); format: cell-based; details: class symbols, 6 h at 37° C.
Sequence (Q9UBT2 whole entry): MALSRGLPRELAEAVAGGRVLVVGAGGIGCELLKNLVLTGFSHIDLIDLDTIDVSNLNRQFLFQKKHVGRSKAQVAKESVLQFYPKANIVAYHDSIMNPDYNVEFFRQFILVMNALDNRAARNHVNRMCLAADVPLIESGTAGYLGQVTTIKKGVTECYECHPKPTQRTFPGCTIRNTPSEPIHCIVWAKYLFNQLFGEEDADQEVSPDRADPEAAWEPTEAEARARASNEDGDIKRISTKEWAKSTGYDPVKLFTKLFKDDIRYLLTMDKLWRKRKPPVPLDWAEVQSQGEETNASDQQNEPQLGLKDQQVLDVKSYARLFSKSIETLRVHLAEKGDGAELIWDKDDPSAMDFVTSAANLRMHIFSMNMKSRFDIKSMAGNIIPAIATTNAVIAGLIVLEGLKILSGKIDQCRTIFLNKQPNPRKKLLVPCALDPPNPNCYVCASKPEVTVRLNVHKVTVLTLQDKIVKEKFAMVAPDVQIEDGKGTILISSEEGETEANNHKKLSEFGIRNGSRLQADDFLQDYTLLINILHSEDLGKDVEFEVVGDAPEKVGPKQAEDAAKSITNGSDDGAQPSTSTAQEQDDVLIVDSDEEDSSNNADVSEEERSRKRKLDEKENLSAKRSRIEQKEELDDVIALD
Sequence (Q9UBE0 whole entry, further chain): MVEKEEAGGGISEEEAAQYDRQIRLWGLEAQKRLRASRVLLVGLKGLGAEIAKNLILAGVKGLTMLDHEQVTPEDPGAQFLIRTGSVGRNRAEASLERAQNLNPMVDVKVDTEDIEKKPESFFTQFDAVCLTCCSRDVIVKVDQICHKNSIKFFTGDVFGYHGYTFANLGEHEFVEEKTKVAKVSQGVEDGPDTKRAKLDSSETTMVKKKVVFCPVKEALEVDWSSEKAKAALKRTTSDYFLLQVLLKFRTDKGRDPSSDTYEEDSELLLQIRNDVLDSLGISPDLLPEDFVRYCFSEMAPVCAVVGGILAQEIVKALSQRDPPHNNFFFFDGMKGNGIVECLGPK
pIC50: −log10 of the molar value.
quantity: pIC50

[Q] Quickly give me recorded pIC50 for NS(=O)(=O)OC[C@H]1[C@H](F)[C@@H](Nc2ncncc2C(=O)c2cc3c(s2)CCCC32NCCc3ncc(Cl)cc32)C[C@@H]1O (stereo partly drawn)
[A] 6.70 to 7.30

[Q] Quickly give me recorded pIC50 for COc1ccc2c(c1)C1(CCc3sc(C(=O)c4cncnc4N[C@H]4C[C@H](O)[C@@H](COS(N)(=O)=O)[C@@H]4F)cc31)NCC2 (stereo partly drawn)
[A] < 6.70

[Q] Quickly give me recorded pIC50 for Cc1sc(C(=O)c2cncnc2N[C@H]2C[C@H](O)[C@@H](COS(N)(=O)=O)[C@@H]2F)cc1C1NCCc2ccncc21 (stereo partly drawn)
[A] 6.70 to 7.30

[Q] Quickly give me recorded pIC50 for `Cc1ccc2c(c1)[C@@]1(CCCc3sc(C(=O)c4cncnc4N[C@H]4C[C@H](O)[C@@H](COS(N)(=O)=O)[C@@H]4F)cc31)NCC2`
[A] 6.70 to 7.30

[Q] Quickly give me recorded pIC50 for NS(=O)(=O)OC[C@H]1[C@H](F)[C@@H](Nc2ncncc2C(=O)c2cc3c(s2)CC2(CC2)CC32NCCc3ccc(Cl)cc32)C[C@@H]1O (stereo partly drawn)
[A] ≥ 7.30

[Q] Quickly give me recorded pIC50 for NS(=O)(=O)OC[C@H]1[C@H](F)[C@@H](Nc2ncncc2C(=O)c2cc3c(s2)CCC32NCCc3ccccc32)C[C@@H]1O (stereo partly drawn)
[A] < 6.70

Reference source for all entries: patent US20260297109A1
